- TEST DETAILS: NCI Yeast Anticancer Drug Screen. Data for the rad14 strain (AID 159)
- CONDITION LABEL: S. cerevisiae rad14 strain growth inhibition; at 100.0 µM; active compounds read high
About 79,000 compounds went through this panel and 15% of them were active in at least one assay; those are over-represented in the sample as a whole.
Label condition met when growth inhibition is at or above 30%; otherwise label condition not met.

Some entries whose results are on file:
INSERT INTO measurements (molecule, category_label) VALUES
  ('CCOC(=O)C1N=[N+](c2ccccc2)C(=O)/C1=C\n1c(=S)[nH]c2ccc([N+](=O)[O-])cc21 (stereo not drawn)', 'condition not met'),
  ('CCC(C)(C)c1ccc(Oc2cccc(C(=O)O)c2)cc1', 'condition met'),
  ('O=C1C=C(c2ccccc2)OC1(c1ccccc1)N1CCOCC1 (stereo not drawn)', 'condition met'),
  ('c1ccc2c(OCC3CO3)cccc2c1 (stereo not drawn)', 'condition met'),
  ('Cc1ccc(N=Nc2ccc(O)c(=O)cc2)cc1', 'condition met');

Query: Hello, I need to know if O=C(O)C1CC(c2ccccc2)=NN1c1ccccc1 (stereo not drawn) has measured growth inhibition not below 30%. Thanks!
Reply: condition met

Query: Hello, I need to know if CC1CC[C@]2(C(=O)O)CCC3(C)C(=CC(=O)C4[C@@]5(C)CCC(=O)C(C)(C)C5CC[C@]43C)[C@@H]2[C@H]1C (stereo partly drawn) has measured growth inhibition not below 30%. Thanks!
Reply: condition met

Query: Hello, I need to know if COc1ccc(/C=C2\NC(=S)N(/C=C3\C(=O)Oc4ccccc4C3=O)C2=O)cc1 has measured growth inhibition not below 30%. Thanks!
Reply: condition not met

Query: Hello, I need to know if CC(=O)OCC(C)Cc1cc2c(cc1Br)OCO2 (stereo not drawn) has measured growth inhibition not below 30%. Thanks!
Reply: condition met

Query: Hello, I need to know if O=C1NC(SSC2=NNC3(C(=O)N2)c2ccccc2-c2ccccc23)=NNC12c1ccccc1-c1ccccc12 has measured growth inhibition not below 30%. Thanks!
Reply: condition not met

Query: Hello, I need to know if S=c1sc2c(s1)SCCS2 has measured growth inhibition not below 30%. Thanks!
Reply: condition not met

Query: Hello, I need to know if CCCC(=O)Oc1ccc(/C=N/NC(N)=S)nc1 has measured growth inhibition not below 30%. Thanks!
Reply: condition not met

Query: Hello, I need to know if S=c1[nH]c2cc3ccccc3cc2[nH]1 has measured growth inhibition not below 30%. Thanks!
Reply: condition not met

Query: Hello, I need to know if Cc1cccc[n+]1C1CCc2c(ccc3ccccc23)C1=O (stereo not drawn) has measured growth inhibition not below 30%. Thanks!
Reply: condition met

Query: Hello, I need to know if Cc1cc2cc3cc(C)c(N)cc3nc2cc1N has measured growth inhibition not below 30%. Thanks!
Reply: condition met

Query: Hello, I need to know if CCOC(=N)c1ccc(O)c(OC)c1 has measured growth inhibition not below 30%. Thanks!
Reply: condition not met

Query: Hello, I need to know if O=C1OC(C2=CC(=O)c3ccccc3C2=O)C(Cl)=C1Cl (stereo not drawn) has measured growth inhibition not below 30%. Thanks!
Reply: condition met

Query: Hello, I need to know if COc1ccc([N+](=O)[O-])c2c(NCCCN(C)C)c3ccccc3nc12 has measured growth inhibition not below 30%. Thanks!
Reply: condition met

Query: Hello, I need to know if Cc1ccc([N+]2=NC(c3ccccc3)=NN(c3ccccc3)C2)cc1 has measured growth inhibition not below 30%. Thanks!
Reply: condition met

Query: Hello, I need to know if N#CC1=C(N)N(/N=C/c2ccccc2)C(c2ccccc2)C1(C#N)C#N (stereo not drawn) has measured growth inhibition not below 30%. Thanks!
Reply: condition met

Query: Hello, I need to know if c1ccc(Cc2cc(-c3ccccc3)n[nH]2)cc1 has measured growth inhibition not below 30%. Thanks!
Reply: condition met
